Entry source: patent US20120165304A1

Target: human 5-HT2C receptor (Homo sapiens, UniProt P28335, I156V/I160V/N158S)
Sequence (P28335 33-458 I156V/N158S/I160V limits assumed): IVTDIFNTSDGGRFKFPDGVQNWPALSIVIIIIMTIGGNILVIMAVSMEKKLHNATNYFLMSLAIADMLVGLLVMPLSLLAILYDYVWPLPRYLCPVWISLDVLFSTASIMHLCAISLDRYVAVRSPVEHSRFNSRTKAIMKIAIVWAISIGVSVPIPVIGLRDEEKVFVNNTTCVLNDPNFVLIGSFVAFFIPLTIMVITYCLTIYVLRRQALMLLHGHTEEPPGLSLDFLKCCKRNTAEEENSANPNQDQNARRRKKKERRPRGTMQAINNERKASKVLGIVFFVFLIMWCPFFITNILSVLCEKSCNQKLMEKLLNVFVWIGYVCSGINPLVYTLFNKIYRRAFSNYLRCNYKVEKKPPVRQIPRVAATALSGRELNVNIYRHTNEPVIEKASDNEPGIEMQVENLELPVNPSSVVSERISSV
Assay: cell-based
Endpoint Name: EC50

Q. Name the recorded EC50 of the compound listed here: COc1ccc(OC2CN(c3c4c(nc5ccnn35)CCNCC4)C2)c(F)c1
A. 0.065 µM

Q. Provide one value: measured EC50 of CN(CCc1cccc(Cl)c1)C(=O)C1CN(c2c3c(nc4ccnn24)CCNCC3)C1
A. 0.147 µM

Q. Complete the entry with EC50 for O=C(C1CN(c2c3c(nc4ccnn24)CCNCC3)C1)N1CCC2(CCCC2)CC1
A. 0.058 µM
